measured on: Ba/F3-TPM3-NTRK1 (Homo sapiens)
Construct: the other entry of the earlier key: TPM3 (P06753, Tropomyosin alpha-3 chain)
Sequence (P04629 510-796 limits assumed): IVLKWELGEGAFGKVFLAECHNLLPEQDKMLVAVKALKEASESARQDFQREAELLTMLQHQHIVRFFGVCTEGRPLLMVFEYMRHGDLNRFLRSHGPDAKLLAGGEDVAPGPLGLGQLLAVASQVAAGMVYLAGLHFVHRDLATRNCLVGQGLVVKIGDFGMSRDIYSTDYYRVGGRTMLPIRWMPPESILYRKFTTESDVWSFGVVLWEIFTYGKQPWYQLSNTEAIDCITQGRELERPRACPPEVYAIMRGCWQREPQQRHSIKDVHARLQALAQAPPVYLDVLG
assay overview: Ba/F3-TPM3-NTRK1 cells proliferation assay
condition context: 72 h, CellTiter Glo
quantity measured: IC50 (nM)
Your answer is read as nM, so omit the unit and give the number.

Inquiry: Give the measured IC50 of `N#Cc1cc2nc(-c3cnn4ccc(N5CCC[C@@H]5c5cc(F)ccc5F)nc34)[nH]c2cc1N1CCC[C@H]1C(=O)O` .
Reply text: 13.2

Inquiry: Now give it for `O=C(O)c1cc2nc(-c3cnn4ccc(N5CCC[C@@H]5c5cc(F)ccc5F)nc34)[nH]c2cc1F` too.
Reply text: 30.1

Inquiry: Now give it for `C[C@H](N)c1nnc(-c2cnn3ccc(N4CCC[C@@H]4c4cc(F)ccc4F)nc23)[nH]1` too.
Reply text: 13.6

Inquiry: Now give it for `N#Cc1cccc(-c2nnc(-c3cnn4ccc(N5CCC[C@@H]5c5cc(F)ccc5F)nc34)[nH]2)c1` too.
Reply text: 0.98

Inquiry: Now give it for `CSc1cc2nc(-c3cnn4ccc(N5CCC[C@@H]5c5cc(F)ccc5F)nc34)[nH]c2cc1C#N` too.
Reply text: 1.04

Inquiry: Now give it for `Fc1ccc(F)c([C@H]2CCCN2c2ccn3ncc(-c4nnc(-c5cnccn5)[nH]4)c3n2)c1` too.
Reply text: 1.16

Inquiry: Now give it for `Fc1ccc(F)c([C@H]2CCCN2c2ccn3ncc(-c4nc5cc(CN6CCOCC6)ccc5[nH]4)c3n2)c1` too.
Reply text: 1.33

Inquiry: Now give it for `CNC(=O)c1cc2nc(-c3cnn4ccc(N5CCC[C@@H]5c5cc(F)ccc5F)nc34)[nH]c2cc1OC` too.
Reply text: 1.06

Inquiry: Now give it for `C[C@@H](O)c1nnc(-c2cnn3ccc(N4CCC[C@@H]4c4cc(F)ccc4F)nc23)[nH]1` too.
Reply text: 3.33

Inquiry: Now give it for `COc1cc2nc(-c3cnn4ccc(N5CCC[C@@H]5c5cc(F)ccc5F)nc34)[nH]c2cc1C#N` too.
Reply text: 1.38

Inquiry: Now give it for OC1CCC[C@H](c2nnc(-c3cnn4ccc(N5CCC[C@@H]5c5cc(F)ccc5F)nc34)[nH]2)C1 (some centres unmarked) too.
Reply text: 3.81

Inquiry: Now give it for `CS(=O)(=O)c1cc2nc(-c3cnn4ccc(N5CCC[C@@H]5c5cc(F)ccc5F)nc34)[nH]c2cc1C(N)=O` too.
Reply text: 2.19

Inquiry: Now give it for `OCc1cc2nc(-c3cnn4ccc(N5CCC[C@@H]5c5cc(F)ccc5F)nc34)oc2cc1F` too.
Reply text: 1.38

Inquiry: Now give it for `OC1(c2nnc(-c3cnn4ccc(N5CCC[C@@H]5c5cc(F)ccc5F)nc34)[nH]2)CCC1` too.
Reply text: 20.9

Inquiry: Now give it for `C[C@@H](CO)c1nnc(-c2cnn3ccc(N4CCC[C@@H]4c4cc(F)ccc4F)nc23)[nH]1` too.
Reply text: 7.42

Inquiry: Now give it for `C[C@H](O)c1nnc(-c2cnn3ccc(N4CCC[C@@H]4c4cc(F)ccc4F)nc23)[nH]1` too.
Reply text: 3.55

Inquiry: Now give it for `COC(=O)N[C@@H](C)c1nnc(-c2cnn3ccc(N4CCC[C@@H]4c4cc(F)ccc4F)nc23)[nH]1` too.
Reply text: 7.71
